These measurements were taken from patent US6869783B1.

system: nitrilase 1650; assay: Conversion of various nitriles with nitrilase 1650 (NH4 ions in supernatant, microtiter plate); format: biochemical, Alcaligenes faecalis 1650; conditions: pH 7.2
Experimental endpoint: % conversion (%)
Number in %, nothing else.

Ask: I have this compound here, CC(C#N)c1ccccc1 (centres unmarked) [Substrate 2, 2-phenylpropionitrile] , and I need its recorded % conversion.
Result: 70.2

Ask: I have this compound here, N#CCc1ccc(Cl)cc1 [Substrate 5, 4-chlorobenzyl cyanide] , and I need its recorded % conversion.
Result: 100

Ask: I have this compound here, N#CCc1ccccc1 [Substrate 4, benzyl cyanide] , and I need its recorded % conversion.
Result: 100

Ask: I have this compound here, CCC(C#N)c1ccccc1 (centres unmarked) [Substrate 3, 2-phenylbutyronitrile] , and I need its recorded % conversion.
Result: 44.3

Ask: I have this compound here, N#CCc1ccc(Br)cc1 [Substrate 6, 4-bromobenzyl cyanide] , and I need its recorded % conversion.
Result: 100
